Measured maximum absorption of individual entries
- protocolSummary: Absorption spectrum of toluene solution (maximum absorption, gram absorption coefficient)
- Type: physicochemical
Answer with a number only, understood to be in nm.

Note down maximum absorption recorded for COCc1ccc(COC)c2c1-c1nc-2nc2[n-]c(nc3nc(nc4[n-]c(n1)c1c(COC)ccc(COC)c41)-c1c(COC)ccc(COC)c1-3)c1c(COC)ccc(COC)c21.[O]=[V+2] [Comparative Example Compound (a), reference compound] 733.0

Return the recorded maximum absorption value; entry: CC(C)(C)c1ccc(OCCCCc2ccc(CCCCOc3ccc(C(C)(C)C)cc3)c3c2-c2nc-3nc3[n-]c(nc4nc(nc5[n-]c(n2)c2c(CCCCOc6ccc(C(C)(C)C)cc6)ccc(CCCCOc6ccc(C(C)(C)C)cc6)c52)-c2c(CCCCOc5ccc(C(C)(C)C)cc5)ccc(CCCCOc5ccc(C(C)(C)C)cc5)c2-4)c2c(CCCCOc4ccc(C(C)(C)C)cc4)ccc(CCCCOc4ccc(C(C)(C)C)cc4)c32)cc1.[O]=[V+2] [Specific Example (1)-42] 734.5

Note maximum absorption for the molecule shown: Fc1ccccc1OCCCCc1ccc(CCCCOc2ccccc2F)c2c1-c1nc-2nc2[n-]c(nc3nc(nc4[n-]c(n1)c1c(CCCCOc5ccccc5F)ccc(CCCCOc5ccccc5F)c41)-c1c(CCCCOc4ccccc4F)ccc(CCCCOc4ccccc4F)c1-3)c1c(CCCCOc3ccccc3F)ccc(CCCCOc3ccccc3F)c21.[O]=[V+2] [Specific Example (1)-43] 735.5

Recall and state the measured maximum absorption for COc1cccc(OC)c1OCCCCc1ccc(CCCCOc2c(OC)cccc2OC)c2c1-c1nc-2nc2[n-]c(nc3nc(nc4[n-]c(n1)c1c(CCCCOc5c(OC)cccc5OC)ccc(CCCCOc5c(OC)cccc5OC)c41)-c1c(CCCCOc4c(OC)cccc4OC)ccc(CCCCOc4c(OC)cccc4OC)c1-3)c1c(CCCCOc3c(OC)cccc3OC)ccc(CCCCOc3c(OC)cccc3OC)c21.[Cu+2] [Specific Example (1)-45] . 706.5

Determine from records and report maximum absorption for COc1cccc(OCCCCc2ccc(CCCCOc3cccc(OC)c3)c3c2-c2nc-3nc3[n-]c(nc4nc(nc5[n-]c(n2)c2c(CCCCOc6cccc(OC)c6)ccc(CCCCOc6cccc(OC)c6)c52)-c2c(CCCCOc5cccc(OC)c5)ccc(CCCCOc5cccc(OC)c5)c2-4)c2c(CCCCOc4cccc(OC)c4)ccc(CCCCOc4cccc(OC)c4)c32)c1.[O]=[V+2] [Specific Example (1)-39] 735.5

Return reported maximum absorption. Input molecule: [O]=[V+2].c1ccc(OCCOCCCCc2ccc(CCCCOCCOc3ccccc3)c3c2-c2nc-3nc3[n-]c(nc4nc(nc5[n-]c(n2)c2c(CCCCOCCOc6ccccc6)ccc(CCCCOCCOc6ccccc6)c52)-c2c(CCCCOCCOc5ccccc5)ccc(CCCCOCCOc5ccccc5)c2-4)c2c(CCCCOCCOc4ccccc4)ccc(CCCCOCCOc4ccccc4)c32)cc1 [Specific Example (1)-38] 735.0

Others:
Identify measured maximum absorption associated with [O]=[V+2].c1ccc(OCCCCc2ccc(CCCCOc3ccccc3)c3c2-c2nc-3nc3[n-]c(nc4nc(nc5[n-]c(n2)c2c(CCCCOc6ccccc6)ccc(CCCCOc6ccccc6)c52)-c2c(CCCCOc5ccccc5)ccc(CCCCOc5ccccc5)c2-4)c2c(CCCCOc4ccccc4)ccc(CCCCOc4ccccc4)c32)cc1 [Specific Example (1)-37] 735.5

Quick one: give measured maximum absorption for CCOCCCCc1ccc(CCCCOCC)c2c1-c1nc-2nc2[n-]c(nc3nc(nc4[n-]c(n1)c1c(CCCCOCC)ccc(CCCCOCC)c41)-c1c(CCCCOCC)ccc(CCCCOCC)c1-3)c1c(CCCCOCC)ccc(CCCCOCC)c21.[O]=[V+2] [Specific Example (1)-33] 734.0
